- TGT: ETS1 (UniProt P14921)
- Sequence: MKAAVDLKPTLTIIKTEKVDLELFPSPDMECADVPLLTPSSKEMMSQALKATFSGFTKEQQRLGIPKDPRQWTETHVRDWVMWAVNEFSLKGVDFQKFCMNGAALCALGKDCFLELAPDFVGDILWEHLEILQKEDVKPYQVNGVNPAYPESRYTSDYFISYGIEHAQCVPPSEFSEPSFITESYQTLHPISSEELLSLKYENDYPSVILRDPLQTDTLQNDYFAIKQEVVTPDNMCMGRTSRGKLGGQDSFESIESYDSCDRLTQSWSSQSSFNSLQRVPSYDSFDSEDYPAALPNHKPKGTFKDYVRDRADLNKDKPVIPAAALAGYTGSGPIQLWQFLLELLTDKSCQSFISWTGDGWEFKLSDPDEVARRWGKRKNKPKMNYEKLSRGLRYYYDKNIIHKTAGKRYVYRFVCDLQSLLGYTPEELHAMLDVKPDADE
- TEST NAME: ETS1 binding intensity (PBM fluorescence), ETS1 alone (arbitrary fluorescence units); higher = stronger binding
- EXPERIMENTAL CONDITIONS: ETS1 concentration 1 nM; RUNX1 concentration 0 nM
Everything with ETS1 binding intensity lower than 3000 is Not met; everything else, including exactly 3000, is Met.

Prompt: Check this sequence for ETS1 binding intensity at or above 3000: `ACCGGCCGAGCCAACTTCCGGCCGCAGAGGCTGCCG`
Response: Met

Prompt: Now give it for `GAGAGAGGCAGGAAGTGTTGTGGTTATTGTTTGAGC` too.
Response: Met

Prompt: Thanks! And `CTCCTTCCTGTGTGTTACTCTTAAAAACCACAGAGG` ?
Response: Not met

Prompt: Request: `GACCTGGGCAGGAAGAGCGGCATGTGGGGCCCCCTG`
Response: Not met

Prompt: What about this sequence? `GGGCTTCCGGCTGAACCCATGGCTGCGGGCTGTGCT`
Response: Not met

Prompt: Repeat for the following sequence: `TCCTTTTCCGGTGGCGGCGCCGCGCGGTGAGGTTGT`
Response: Not met

Prompt: Cool, now `GCTGTGCCGGCAGGATGTGGTCTTTGGTTTCTGTTT`
Response: Met

Prompt: Let us now turn to `ATCTTCCGTAGCAGTCAGGTGTTTTGTGGTTTGCAG`
Response: Not met

Prompt: Here is the next sequence: `GTCAGGAAACACATAGTTGTGTTTAACCTCAGGAAA`
Response: Not met

Prompt: Then this sequence: `CTGCTGCCGCGAACAGGAAACCACTACAATCAGGAG`
Response: Not met

Prompt: Repeat with `ATTTCGCTGAAAACAGGAAACCACGAAGCCCAGATG`
Response: Met

Prompt: Continue with `GCTAAGGTGAAAGGAAGTGGGTTTTGTCTTTTTTTT`
Response: Not met

Data provenance is the supplement of paper PMC10681739.
